- Tested on: CCRIS mutagenicity, Ames/micronucleus/aberration tests
- assay: CCRIS mutagenicity studies
- condition.info: Test System: AMES SALMONELLA TYPHIMURIUM; Strain/Indicator: TA100; Metabolic Activation: NONE; Method: GAS EXPOSURE
Active and inactive are the calls of the source. How the calls were made is not given here.
recorded.endpoint: mutagenic call

INSERT INTO measurements (item_smiles, endpoint_value) VALUES
  ('COC=O', 'inactive; negative'),
  ('CN', 'inactive; negative'),
  ('[Si]', 'inactive; negative');

###

- System: CCRIS mutagenicity, Ames/micronucleus/aberration tests
- assay: CCRIS mutagenicity studies
- condition.info: Test System: MOUSE LYMPHOMA; Strain/Indicator: L5178Y (TK+/TK-); Metabolic Activation: RAT, LIVER, S-9, AROCLOR 1254; Method: SUSPENSION/PLATE
Active and inactive are the calls of the source. How the calls were made is not given here.
Outcomes: class 1 = active, class 0 = inactive

INSERT INTO measurements (molecule, group_label) VALUES
  ('CC1(C)CCC2(C(=O)OC3OC(CO)C(O)C(O)C3O)CCC3(CO)C(=CCC4C5(C)CC(O)C(O)C(C)(C(=O)OC6OC(CO)C(O)C(O)C6O)C5CCC43C)C2C1 (configuration not stated)', 'class 0'),
  ('CC(=O)C1(c2ccccc2)CCNCC1', 'class 0'),
  ('O=S(=O)(c1ccc(O)cc1)c1ccc(O)cc1', 'class 0'),
  ('Oc1ccccc1', 'class 1'),
  ('ClCC(Cl)CCl', 'class 1'),
  ('CCCCCCCCCCCCS', 'class 0'),
  ('O=C(/C=N/O)Nc1ccccc1', 'class 0');

###

- System: CCRIS mutagenicity, Ames/micronucleus/aberration tests
- assay: CCRIS mutagenicity studies
- condition.info: Test System: AMES SALMONELLA TYPHIMURIUM; Strain/Indicator: TA98; Metabolic Activation: NONE; Method: STANDARD PLATE
Calls of active or inactive are those of the source. No rule for the calls is given here.
Outcomes: true (1) (active), false (0) (inactive)

INSERT INTO results (compound, group_label) VALUES
  ('O=CN(O)c1cccc(Cl)c1', 'false (0)'),
  ('CCCCCCCCSCn1cc[n+](C)c1', 'false (0)'),
  ('CCc1ccc(C)cc1', 'false (0)'),
  ('CC1(O)CC2CCC1(C)C2(C)C (stereo unspecified)', 'false (0)'),
  ('O=C(O)c1ccc([N+](=O)[O-])o1', 'false (0)'),
  ('C1COCO1', 'false (0)'),
  ('BrCCBr', 'false (0)'),
  ('Nc1ccc(CC(=O)O)cc1', 'false (0)'),
  ('N1=NC2[C@@H]3O[C@@H]3C1[C@H]1O[C@@H]21', 'false (0)'),
  ('O=C1O[C@H]([C@@H](O)CO)C(O)=C1O', 'false (0)'),
  ('O=C1c2ccccc2C(=O)c2c1cc(O)c(O)c2O', 'true (1)'),
  ('CCC(C)c1ccc(/C=C/c2ccc([N+](=O)[O-])cc2)cc1 (stereo unspecified)', 'true (1)'),
  ('CN=C=O', 'false (0)'),
  ('Cc1ccccc1NC(=O)c1csc([N+](=O)[O-])c1', 'true (1)'),
  ('Nc1ccc(O)c2c1C(=O)c1c(O)ccc(N)c1C2=O', 'true (1)'),
  ('[Cl][Sn][Cl]', 'false (0)'),
  ('C=C(C)C(=O)OCCCCC', 'false (0)'),
  ('O=S(=O)(Nc1cccc(Cl)c1)c1cccc2cccnc12', 'false (0)'),
  ('CCN(CCCl)CCCNc1c2ccccc2nc2c1ccc1cccnc12', 'true (1)'),
  ('CCCCCCCCCCCCS', 'false (0)'),
  ('ClCc1cc2c3c(cccc3c1)-c1ccccc1-2', 'true (1)'),
  ('COc1cc(Cc2cnc(N)nc2N)cc(OC)c1OC', 'true (1)'),
  ('O[C@H]1C=Cc2c(ccc3c4c5c(cccc5cc23)C=C4)[C@@H]1O', 'false (0)'),
  ('O=C(O)c1cc(Br)cc2cccnc12', 'false (0)'),
  ('CC(=O)N(O)c1ccccc1C', 'false (0)'),
  ('Cc1c(-c2cnccn2)ssc1=S', 'false (0)'),
  ('FC(F)C(F)(F)F', 'false (0)'),
  ('O=C(NC(=O)c1c(F)cccc1F)Nc1cc(Cl)c(Oc2ncc(C(F)(F)F)cc2Cl)c(Cl)c1', 'false (0)'),
  ('NC(=Nc1ccccc1)Nc1ccccc1', 'false (0)'),
  ('Clc1cc(Cl)nc(Cl)n1', 'false (0)'),
  ('Cc1cc(S(=O)(=O)O)c(N)cc1Cl', 'false (0)');

###

- System: CCRIS mutagenicity, Ames/micronucleus/aberration tests
- assay: CCRIS mutagenicity studies
- condition.info: Test System: AMES SALMONELLA TYPHIMURIUM; Strain/Indicator: TA97; Metabolic Activation: NONE; Method: PREINCUBATION
Calls of active or inactive are those of the source. The rule behind the calls is not given here.
recorded.endpoint: mutagenic call

INSERT INTO measurements (item_smiles, measured_on, endpoint_value) VALUES
  ('O=S(=O)(O)c1ccccc1', 'CCRIS mutagenicity, Ames/micronucleus/aberration tests', 'inactive; negative'),
  ('Cc1cc(=O)[nH]c(=S)[nH]1', 'CCRIS mutagenicity, Ames/micronucleus/aberration tests', 'inactive; negative'),
  ('Cc1ccc(Cl)cc1', 'CCRIS mutagenicity, Ames/micronucleus/aberration tests', 'inactive; negative'),
  ('Oc1ccc(-c2ccc(O)cc2)cc1', 'CCRIS mutagenicity, Ames/micronucleus/aberration tests', 'inactive; negative'),
  ('c1ccc2c(c1)ccc1ccccc12', 'CCRIS mutagenicity, Ames/micronucleus/aberration tests', 'inactive; negative'),
  ('COCCOC(C)=O', 'CCRIS mutagenicity, Ames/micronucleus/aberration tests', 'inactive; negative'),
  ('Cc1cccc(C#N)c1', 'CCRIS mutagenicity, Ames/micronucleus/aberration tests', 'inactive; negative'),
  ('CC(C)[N+](C)(CCOC(=O)C1c2ccccc2Oc2ccccc21)C(C)C', 'CCRIS mutagenicity, Ames/micronucleus/aberration tests', 'inactive; negative');

###

- Tested on: CCRIS mutagenicity, Ames/micronucleus/aberration tests
- assay: CCRIS mutagenicity studies
- condition.info: Test System: AMES SALMONELLA TYPHIMURIUM; Strain/Indicator: TA98; Metabolic Activation: NONE; Method: STANDARD PLATE
Active and inactive are the calls of the source. No rule for the calls is given here. Where a SMILES comes first, the peptide text is derived from it. The star is where a group is joined. For = O=C*
Labels: active, inactive

INSERT INTO measurements (compound, group_label) VALUES
  ('O=c1[nH]cc2ccc3cccc4ccc1c2c34', 'inactive'),
  ('N#CC1=Cc2cccc3cccc1c23', 'inactive'),
  ('CCC(=O)n1ncc(Cl)c(Cl)c1=O', 'inactive'),
  ('O=S(=O)(c1ccc(O)cc1)c1ccc(O)cc1', 'inactive'),
  ('CS(=O)(=O)n1ncc(Cl)c(Cl)c1=O', 'inactive'),
  ('CC(=O)Nc1ccc(/C=C/C(=O)c2ccccc2)cc1', 'inactive'),
  ('O=[N+]([O-])c1cccc2nscc12', 'active'),
  ('C[C@]12CC[C@@H](OC(=O)/C=C/c3cccc(N(CCCl)CCCl)c3)C[C@@H]1CC[C@@H]1[C@@H]2CC[C@]2(C)NC(=O)CC[C@@H]12', 'inactive'),
  ('CN1CCN(C2=Nc3ccccc3Oc3ccc(Cl)cc32)CC1', 'inactive'),
  ('O=[N+]([O-])c1ccc2nscc2c1', 'active'),
  ('O=C(/C=C/c1ccc(F)cc1)c1ccccc1', 'inactive'),
  ('c1cc2ccc3cccc4ccc(c1)c2c34', 'inactive'),
  ('Clc1cccnc1', 'inactive'),
  ('CCC(=O)N(O)c1ccc(Cl)c(Cl)c1', 'inactive'),
  ('O=c1cc2ccc3cccc4ccc([nH]1)c2c34', 'active'),
  ('CC(C)CCCCCCOC(=O)CCCCC(=O)OCCCCCCC(C)C', 'inactive'),
  ('CCOCC(=O)O', 'inactive'),
  ('CC(Cl)(Cl)Cl', 'active'),
  ('COC(=O)Nc1nc2ccc(Sc3ccccc3)cc2[nH]1', 'inactive'),
  ('Cc1ccc(N=NN(C)C)cc1', 'active'),
  ('NC(N)=S', 'inactive'),
  ('CCCCCCCCCc1ccccc1Oc1ccccc1CCCCCCCCC', 'inactive'),
  ('Fc1cccc(F)n1', 'inactive'),
  ('Nc1ccc2c(c1)C(=O)c1ccccc1C2=O', 'inactive'),
  ('Cn1c(N)nc2c3ccc(=O)[nH]c3ccc21', 'active'),
  ('N#Cc1cccc(/C=C\c2ccc([N+](=O)[O-])cc2)c1', 'active'),
  ('CCCCC(CC)COC(=O)c1ccc(C(=O)O)cc1 (stereo unspecified)', 'inactive'),
  ('COc1cc2c(CCNC(C)=O)c[nH]c2cc1O', 'inactive'),
  ('Cc1ccc(N(O)C=O)cc1', 'inactive'),
  ('C=CC(=C)CCC=C(C)C', 'inactive'),
  ('NCC1CCC(C(=O)c2ccc(CCC(=O)O)cc2)CC1 (stereo unspecified)', 'inactive'),
  ('O=[N+]([O-])c1ccc(-c2nc3sccn3c2[N+](=O)[O-])cc1', 'active'),
  ('ClC(Br)Br', 'inactive'),
  ('Cc1ccc(S(=O)(=O)n2ncc(Cl)c(Cl)c2=O)cc1', 'inactive'),
  ('C=CC(=O)N(CC1CO1)CC1CO1 (stereo unspecified)', 'active'),
  ('COc1cc(N)ccc1NC(C)=O', 'inactive'),
  ('Nc1ccc(N=Nc2ccccc2)cc1', 'inactive'),
  ('Nc1cccc2cc3ccccc3cc12', 'inactive'),
  ('O=CC(=O)c1ccccc1', 'active'),
  ('O=C1OC(O)C(C(Cl)Cl)=C1Cl (stereo unspecified)', 'active'),
  ('COP(=S)(OC)Oc1ccc(N)c(C)c1', 'inactive'),
  ('OC(Nc1snc2ccccc12)C(Cl)(Cl)Cl (stereo unspecified)', 'inactive'),
  ('CC(C)(C)N.CC(C)(C)N.[Cl][Pt][Cl]', 'active'),
  ('Cc1ccc(N=Nc2ccc(N(CCO)CCO)cc2)cc1', 'inactive'),
  ('O=C(O)/C=C(/CC(=O)O)C(=O)O', 'inactive'),
  ('C#Cc1ccc2c3c(cccc13)-c1ccccc1-2', 'active'),
  ('O=NN1CSCC1C(=O)O (stereo unspecified)', 'inactive'),
  ('CCBr', 'inactive'),
  ('CCC1CCC(CCC(=O)[O-])C1.CCC1CCC(CCC(=O)[O-])C1.[Co+2] (stereo unspecified)', 'inactive'),
  ('CSCC[C@H](NC=O)C(=O)N[C@@H](Cc1ccccc1)C(=O)O (For-Met-Phe-OH)', 'inactive'),
  ('Cc1cc(Cl)ccc1OCC(=O)O', 'inactive'),
  ('Cc1ccc(C(C)(C)C)c(O)c1C(O)c1ncc([N+](=O)[O-])n1C (stereo unspecified)', 'inactive'),
  ('COc1cccc2c1CC([N+](=O)[O-])c1ccc3c(c1-2)OCO3 (stereo unspecified)', 'active'),
  ('CC(=O)c1ccc(Cl)c(Cl)c1Cl', 'inactive'),
  ('CN(C(=O)CCl)c1snc2ccccc12', 'inactive'),
  ('C[C@@H]1O[C@H](C)[C@@H](O)[C@H](O)[C@@H]1OS(=O)(=O)O', 'inactive');
